# Tested on: Saos-2
# ASSAY_PROCEDURE: 72-h MTT cytotoxicity assay Saos-2
# Format: cell-based
# REPORTED_CONDITIONS: Homo sapiens, SAOS-2, 72 h, Table 5; Bone osteosarcoma
ENDPOINT_LABEL: pIC50
pIC50 field: float, defined as -log10 of concentration (mol/L).

The cases that follow already have their pIC50 on record.
COMPOUND_STRUCTURE_STRING | pIC50
CC[C@@H](N)C(=O)Nc1nc(C)c(-c2ccnc(Nc3cccc([N+](=O)[O-])c3)n2)s1 | 6.22
Cc1nc(N)sc1-c1ccnc(Nc2ccc(N3CCOCC3)cc2)n1 | 7.00
CNc1nc(C)c(-c2ccnc(Nc3ccc(N4CCN(Cc5ccccc5)CC4)cc3)n2)s1 | 5.43

Read the next record carefully.
Task: What value of pIC50 has been reported for the following compound? Cc1nc(NC(=O)[C@H](N)[C@@H](C)O)sc1-c1ccnc(Nc2cccc([N+](=O)[O-])c2)n1
Result: 6.40

----------
# System: all transformed cells
# ASSAY_PROCEDURE: 72-h MTT cytotoxicity assay, summary over all transformed cells
# Assay type: cell-based
# REPORTED_CONDITIONS: Homo sapiens, Table 5, average over transformed cell lines, read-out: 72-h MTT IC50 Average (all transformed cells)
Measured pIC50 by item
pIC50 field: float, defined as -log10 of concentration (mol/L).

The cases that follow already have their pIC50 on record.
COMPOUND | ENDPOINT_LABEL | RESULT_NUMBER
CC[C@@H](N)C(=O)Nc1nc(C)c(-c2ccnc(Nc3cccc([N+](=O)[O-])c3)n2)s1 [Compound 16] | pIC50 | 6.22
Cc1nc(NC(=O)[C@H](N)[C@@H](C)O)sc1-c1ccnc(Nc2cccc([N+](=O)[O-])c2)n1 [Compound 15] | pIC50 | 5.92

Task: What value of pIC50 has been reported for the following compound? Cc1nc(N)sc1-c1ccnc(Nc2ccc(N3CCOCC3)cc2)n1 [Compound 1]
Result: 5.96

Task: What value of pIC50 has been reported for the following compound? CNc1nc(C)c(-c2ccnc(Nc3ccc(N4CCN(Cc5ccccc5)CC4)cc3)n2)s1 [Compound 11]
Result: 5.80

----------
# System: SKUT-1B
# ASSAY_PROCEDURE: 72-h MTT cytotoxicity assay SKUT-1B
# Format: cell-based
# REPORTED_CONDITIONS: Homo sapiens, Skut1B, Table 5, Leiomyosarcoma
Measured IC50 by item
API: value field is a number in nM; no unit string.

COMPOUND_STRUCTURE_STRING | IC50 / nM
CC[C@@H](N)C(=O)Nc1nc(C)c(-c2ccnc(Nc3cccc([N+](=O)[O-])c3)n2)s1 | 100
Cc1nc(NC(=O)[C@H](N)[C@@H](C)O)sc1-c1ccnc(Nc2cccc([N+](=O)[O-])c2)n1 | 200

Read the next record carefully.
Task: What value of IC50 has been reported for the following compound? CNc1nc(C)c(-c2ccnc(Nc3ccc(N4CCN(Cc5ccccc5)CC4)cc3)n2)s1
Result: 300

----------
# TARGET: PLK-1 (Homo sapiens, UniProt P53350)
# Sequence (P53350 whole entry): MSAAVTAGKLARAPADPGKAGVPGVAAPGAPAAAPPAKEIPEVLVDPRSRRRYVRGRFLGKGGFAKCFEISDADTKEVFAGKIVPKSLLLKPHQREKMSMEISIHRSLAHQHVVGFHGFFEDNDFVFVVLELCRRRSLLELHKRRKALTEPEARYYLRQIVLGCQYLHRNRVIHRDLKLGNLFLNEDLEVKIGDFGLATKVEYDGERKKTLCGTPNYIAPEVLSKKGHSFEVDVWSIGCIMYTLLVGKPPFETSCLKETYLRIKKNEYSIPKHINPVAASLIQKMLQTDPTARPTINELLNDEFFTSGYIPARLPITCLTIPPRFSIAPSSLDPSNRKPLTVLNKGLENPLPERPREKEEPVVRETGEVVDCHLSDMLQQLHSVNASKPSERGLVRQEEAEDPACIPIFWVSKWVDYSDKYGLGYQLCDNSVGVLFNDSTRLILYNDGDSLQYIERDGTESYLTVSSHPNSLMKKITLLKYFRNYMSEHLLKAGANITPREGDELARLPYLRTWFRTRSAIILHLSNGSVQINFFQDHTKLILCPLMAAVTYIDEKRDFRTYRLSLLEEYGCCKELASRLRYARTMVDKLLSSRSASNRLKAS
# ASSAY_PROCEDURE: Kinase assay PLK-1
# Assay type: biochemical
# REPORTED_CONDITIONS: Table 3 selectivity panel; read-out: Kinase specificity IC50 PLK1
Measured IC50 by item

The cases that follow already have their IC50 on record.
COMPOUND | IC50
CNc1nc(C)c(-c2ccnc(Nc3ccc(N4CCOCC4)cc3)n2)s1 [Compound 3] | > 100 µM
Cc1nc(NC(=O)[C@H](N)[C@@H](C)O)sc1-c1ccnc(Nc2cccc([N+](=O)[O-])c2)n1 [Compound 15] | > 100 µM
CC[C@@H](N)C(=O)Nc1nc(C)c(-c2ccnc(Nc3cccc([N+](=O)[O-])c3)n2)s1 [Compound 16] | > 100 µM

Read the next record carefully.
Task: Hi! What's the reported IC50 for CNc1nc(C)c(-c2ccnc(Nc3ccc(N4CCN(Cc5ccccc5)CC4)cc3)n2)s1 [Compound 11] on PLK-1 (Homo sapiens, UniProt P53350)?
Result: 19 µM
